Could you please report measured gamma_day10 for the items listed next?
- Test system: K562 CRISPRi cells
- assay_name: Perturb-seq pooled growth measurement (sgRNA counts, growth phenotype γ, relative activity)
- Type: cell-based, human
- run_parameters: pooled growth phenotype γ of the Perturb-seq sgRNA, day 10, K562 CRISPRi cells

Name the recorded gamma_day10 for DBR1_ + _137893744.23-P1P2_00 (guide GTTTGCAGGAGTCTACACCC; listed as DNA, chemistry not fully specified) .
−0.4893

Consider next the substance CAD_ + _27440280.23-P1P2_00 (guide GGCTGGAGAGAAGCCGGGCG; listed as DNA, chemistry not fully specified) in the same way.
−0.684

Consider next the substance DBR1_ + _137893744.23-P1P2_07 (guide GTTTGCAGGGGTCTACACCC; listed as DNA, chemistry not fully specified) in the same way.
−0.468

Consider next the substance BCR_ + _23523092.23-P1P2_00 (guide GCGCGCGGGGCCCGTCTCAG; listed as DNA, chemistry not fully specified) in the same way.
−0.5068

Consider next the substance RPL9_ + _39460483.23-P1P2_01 (guide GGATGATTCTGTGCTCGTGG; listed as DNA, chemistry not fully specified) in the same way.
−0.4984

Consider next the substance CDC23_ −_137548987.23-P1P2_02 (guide GACAGCTACCGGGACCATGG; listed as DNA, chemistry not fully specified) in the same way.
−0.5705

Consider next the substance RPS15_ −_1438413.23-P1P2_12 (guide GACCAAAGCGATCTCTTGTG; listed as DNA, chemistry not fully specified) in the same way.
0.01173

Consider next the substance RPS18_ + _33239917.23-P1P2_08 (guide GCTGCGATTCCGCTGGATCA; listed as DNA, chemistry not fully specified) in the same way.
−0.1637

Consider next the substance ATP5E_ −_57607036.23-P1P2_16 (guide GGTGTCCAGGGGCGCTCTGT; listed as DNA, chemistry not fully specified) in the same way.
−0.1656

Consider next the substance HSPA5_ + _128003624.23-P1P2_06 (guide GAGCCGAGTAGACGACGGTG; listed as DNA, chemistry not fully specified) in the same way.
−0.09835

Consider next the substance RAN_ + _131356438.23-P1P2_00 (guide GGCGGTCGCTGCGCTTAGGG; listed as DNA, chemistry not fully specified) in the same way.
−0.1615

Consider next the substance TUBB_ + _30688126.23-P1_00 (guide GCGGCAGGAAGGTTCTGAGA; listed as DNA, chemistry not fully specified) in the same way.
−0.6999

All values here come from patent US20220259593A1.
